Target: human cloned 5-HT6 receptors (Homo sapiens, UniProt P50406)
Construct: expressed in transfected cells; host or cells: Hela cells
Sequence (P50406 whole entry): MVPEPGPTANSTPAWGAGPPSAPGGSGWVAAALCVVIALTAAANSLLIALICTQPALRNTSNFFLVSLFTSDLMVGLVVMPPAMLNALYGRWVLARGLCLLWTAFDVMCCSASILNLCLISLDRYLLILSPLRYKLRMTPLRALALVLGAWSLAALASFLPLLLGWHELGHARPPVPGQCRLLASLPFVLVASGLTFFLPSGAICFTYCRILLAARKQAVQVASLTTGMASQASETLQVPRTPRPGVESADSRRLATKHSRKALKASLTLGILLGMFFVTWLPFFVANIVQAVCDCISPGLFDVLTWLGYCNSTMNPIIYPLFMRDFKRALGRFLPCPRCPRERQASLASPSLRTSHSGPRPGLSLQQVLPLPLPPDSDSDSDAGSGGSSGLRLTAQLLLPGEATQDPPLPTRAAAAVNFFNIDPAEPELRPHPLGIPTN
Experiment: 5-HT6 binding affinity, [3H]-LSD displacement in membranes of Hela cells
Settings: test compound dose 1000 nM; [3H]-LSD 3.0 nM; read-out: % Inhibition
This section presents molecules with their documented inhibition at 1 µM values.
propertyLabel: inhibition at 1 µM (%)

1) N=C(N)NN=C(c1cn(S(=O)(=O)c2ccc3ccccc3c2)c2ccc(Cl)cc12)C1CC1 [Example 83]: 89.3
2) CCCCC(=NNC(=N)N)c1cn(S(=O)(=O)c2ccc(OC)cc2)c2ccccc12 [Example 62]: 68.3
3) CCCCC(=NNC(=N)N)c1cn(S(=O)(=O)c2ccc(OC)c(OC)c2)c2ccc(Cl)cc12 [Example 88]: 65.6
4) N=C(N)NN=Cc1cn(S(=O)(=O)c2ccccc2)c2ccc(OCc3ccccc3)cc12 [Example 21]: 57.4
5) COc1ccc(S(=O)(=O)n2cc(C(C)=NNC(=N)N)c3cc(Cl)ccc32)cc1OC [Example 87]: 88.9
6) CCCCC(=NNC(=N)N)c1cn(S(=O)(=O)c2ccc(OC)cc2)c2cc(F)ccc12 [Example 107]: 61.5
7) N=C(N)NN=C(Cc1ccccc1)c1cn(S(=O)(=O)c2ccccc2)c2ccccc12 [Example 6]: 97.8
8) Cc1ccc(S(=O)(=O)n2cc(C=NN(C)C3=NCCN3)c3ccccc32)cc1 [Example 4]: 71.9

====

Target: human cloned 5-HT6 receptors (Homo sapiens)
Construct: expressed in transfected cells; host or cells: Hela cells
Assay: 5-HT6 binding affinity, [3H]-LSD displacement in membranes of Hela cells
Settings: test compound dose 1000 nM; [3H]-LSD 3.0 nM; read-out: % Inhibition
Protocol: The affinity of test compounds for the serotonin 5-HT6 receptor is evaluated in the following manner. […] The final pellet is suspended in a small volume of Tris.HCl buffer and the tissue protein content is determined in aliquots of 10-25 μl volumes. […] Specific binding to the 5-HT6 receptor is defined as the total radioactivity bound less the amount bound in the presence of 10.0 μM unlabeled methiothepin. […]
propertyLabel: inhibition at 1 µM (%)

1. COc1ccc(S(=O)(=O)n2cc(C(C)=NNC(=N)N)c3ccc(F)cc32)cc1OC: 89.2
2. CC(=NNC(=N)N)c1c(-c2ccc(Cl)cc2)n(S(=O)(=O)c2ccccc2)c2ccccc12: 89.6
3. CC(C)C(=NNC(=N)N)c1cn(S(=O)(=O)c2ccccc2)c2ccccc12: 91.5
4. CCCCC(=NNC(=N)N)c1cn(S(=O)(=O)c2ccc(OC)c(OC)c2)c2ccccc12: 89.8

====

This section presents molecules with their documented inhibition at 0.1 µM values.
Molecular target: human cloned 5-HT6 receptors (Homo sapiens)
Construct: expressed in transfected cells; host or cells: Hela cells
Assay: 5-HT6 binding affinity, [3H]-LSD displacement in membranes of Hela cells
Settings: test compound dose 100 nM; [3H]-LSD 3.0 nM
Protocol: The affinity of test compounds for the serotonin 5-HT6 receptor is evaluated in the following manner. […] The final pellet is suspended in a small volume of Tris.HCl buffer and the tissue protein content is determined in aliquots of 10-25 μl volumes. […] Specific binding to the 5-HT6 receptor is defined as the total radioactivity bound less the amount bound in the presence of 10.0 μM unlabeled methiothepin. […]
propertyLabel: inhibition at 0.1 µM (%)

1) CC(=NNC(=N)N)c1cn(S(=O)(=O)c2sc(N)nc2C)c2ccccc12 [Example 22]: 90.5
2) CC(=NNC(=N)N)c1cn(S(=O)(=O)c2cc(Cl)c(Cl)s2)c2ccccc12 [Example 42]: 46.3
3) N=C(N)NN=C(c1cn(S(=O)(=O)c2ccccc2)c2cc(F)ccc12)C1CC1 [Example 114]: 85.2
4) CCCCS(=O)(=O)n1cc(C(C)=NNC(=N)N)c2ccccc21 [Example 58]: 78.3
5) CCCCS(=O)(=O)n1cc(C(=NNC(=N)N)C2CC2)c2ccccc21 [Example 60]: 62.6
6) CC(=NNC(=N)N)c1cn(S(=O)(=O)c2ccccc2)c2ccc(F)cc12 [Example 19]: 82.4
7) CC(=NNC(=N)N)c1cn(S(=O)(=O)c2cc(Cl)sc2Cl)c2ccccc12 [Example 41]: 55
8) CCCNC(=N)NN=C(C)c1cn(S(=O)(=O)c2ccccc2)c2ccccc12 [Example 124]: 75.2
9) CC(=NNC(=N)N)c1cn(S(=O)(=O)c2cccc3ccccc23)c2ccccc12 [Example 50]: 63.5
10) CC(=NNC(=N)NCc1ccccc1)c1cn(S(=O)(=O)c2ccccc2)c2ccccc12 [Example 125]: 39.1
11) CC(=NNC(=N)NCc1ccccn1)c1cn(S(=O)(=O)c2ccccc2)c2ccccc12 [Example 126]: 37.7
12) COc1ccc2c(c1)c(C=NNC(=N)N)cn2S(=O)(=O)c1ccccc1 [Example 20]: 76.3
13) CC(=NNC(=N)N)c1cn(S(=O)(=O)c2cc(Br)c(Br)s2)c2ccccc12 [Example 39]: 62.1
14) CC(=NNC(=N)N)c1cn(S(=O)(=O)c2c(C)noc2C)c2ccccc12 [Example 43]: 68.9
15) N=C(N)NN=C(c1cn(S(=O)(=O)c2ccccc2)c2ccc(Cl)cc12)C1CC1 [Example 86]: 78.1
16) CC(=NNC(=N)N)c1cn(S(C)(=O)=O)c2ccc(Cl)cc12 [Example 72]: 75.1
17) CS(=O)(=O)n1cc(C(=NNC(=N)N)C2CC2)c2cc(Cl)ccc21 [Example 74]: 68.5
18) CSc1nccc(-c2ccc(S(=O)(=O)n3cc(C(C)=NNC(=N)N)c4ccccc43)s2)n1 [Example 49]: 33
19) CC(=NNC(=N)N)c1cn(S(=O)(=O)c2cccc3nonc23)c2ccccc12 [Example 25]: 79.6
20) CC(=NNC(=N)N)c1cn(S(=O)(=O)c2ccc(F)cc2)c2ccccc12 [Example 44]: 75.5
21) CC(=NNC(=N)N)c1cn(C(=O)c2ccccc2)c2ccccc12 [Example 130]: 49.6
22) CC(=NNC(=N)N)c1c(-c2ccccc2)n(S(=O)(=O)c2ccccc2)c2ccccc12 [Example 15]: 67.1
23) N=C(N)NN=C(c1cn(S(=O)(=O)c2ccc3ccccc3c2)c2cc(F)ccc12)C1CC1 [Example 111]: 27.6
24) CC(=NNC(=N)N)c1cn(S(=O)(=O)c2ccccc2)c2ccc(Cl)cc12 [Example 84]: 81.7
25) CC(=NNC(=N)NCCO)c1cn(S(=O)(=O)c2ccccc2)c2ccccc12 [Example 127]: 83.3
26) CC(=NNC(=N)N)c1cn(S(=O)(=O)c2cc(Cl)ccc2Cl)c2ccccc12 [Example 40]: 33.3
27) CC(=NNC(=N)N)c1cn(S(=O)(=O)c2cccc3nsnc23)c2ccccc12 [Example 24]: 62.9
28) CC(=NNC(=N)N)c1cn(S(=O)(=O)c2ccc(-c3ccccc3)cc2)c2ccccc12 [Example 26]: 39.7
29) CC(=NNC(=N)N)c1cn(S(=O)(=O)c2cc(Br)c(Cl)s2)c2ccccc12 [Example 28]: 58.3
30) COc1ccc(Cl)cc1S(=O)(=O)n1cc(C(C)=NNC(=N)N)c2ccccc21 [Example 34]: 48
31) COc1ccc(S(=O)(=O)n2cc(C(C)=NNC(=N)N)c3ccccc32)cc1OC [Example 69]: 72.4
32) COc1ccc(S(=O)(=O)n2cc(C(=NNC(=N)N)C3CC3)c3cc(Cl)ccc32)cc1 [Example 80]: 74
33) CS(=O)(=O)n1cc(C(=NNC(=N)N)C2CC2)c2ccccc21 [Example 57]: 40.4
